Assayed System: T1, human MSR1 extracellular domain expressed with a N-terminal nonahistidine tag (His9-hMSR1); R&D Systems, Cat … (human, UniProt P21757 77-451)
T1 construct: extracellular domain; also called His-hMSR1; 9xHis-hMSR1; not shown: N-terminal nonahistidine tag
T1 sequence (looked up): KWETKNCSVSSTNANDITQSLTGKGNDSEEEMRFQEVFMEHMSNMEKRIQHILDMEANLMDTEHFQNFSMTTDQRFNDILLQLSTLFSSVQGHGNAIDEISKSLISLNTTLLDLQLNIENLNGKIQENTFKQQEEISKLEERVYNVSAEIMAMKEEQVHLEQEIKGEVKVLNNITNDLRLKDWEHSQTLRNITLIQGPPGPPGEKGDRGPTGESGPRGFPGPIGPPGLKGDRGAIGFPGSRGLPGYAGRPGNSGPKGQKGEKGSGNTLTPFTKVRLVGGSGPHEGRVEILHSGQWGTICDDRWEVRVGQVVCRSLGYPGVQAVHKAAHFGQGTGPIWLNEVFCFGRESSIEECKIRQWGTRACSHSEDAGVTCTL
Experimental Details: SPR Biacore, 37 C, antibody captured
Lab note: compare t½ against 6 min. Equal or greater, write YES. Smaller, write NO.

Look over these answered cases.
API: above_or_equal(metric=t½, cutoff=6 min) for item H1H27732P-N297Q (antibody, V domains shown, Human IgG1 Fc with N297Q point mutation) VH: QLQLQESGPGLVKPSETLSLTCTVSGGSISSSTYYWGWIRQPPGKGLEWIGSFYYSGSTYYNPSLKSRVTISVGTSKNQFSLKLSSVTAADTAVYFCARGGLLGRPFVIWGQGTMVTVSS VL: DIQMTQSPSSLSASVGDRVTITCRASQGIRNDLGWYQQKPGKAPKRLIYAASSLQSGVPSRFSGSGSGTEFTLTISSLQPEDFATYYCLQHNSYPLTFGGGTKVEIKR
YES

// same read-out, input: H1H27731P-N297Q (antibody, V domains shown, Human IgG1 Fc with N297Q point mutation) VH: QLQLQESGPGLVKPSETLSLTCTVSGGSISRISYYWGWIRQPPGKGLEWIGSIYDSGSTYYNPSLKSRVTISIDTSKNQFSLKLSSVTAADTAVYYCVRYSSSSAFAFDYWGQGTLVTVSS VL: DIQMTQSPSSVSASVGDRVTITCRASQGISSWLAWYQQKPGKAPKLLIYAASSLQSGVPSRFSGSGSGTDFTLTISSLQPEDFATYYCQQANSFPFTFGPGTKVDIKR
YES

Would you kindly repeat that for H1H27739P-N297Q (antibody, V domains shown, Human IgG1 Fc with N297Q point mutation) VH: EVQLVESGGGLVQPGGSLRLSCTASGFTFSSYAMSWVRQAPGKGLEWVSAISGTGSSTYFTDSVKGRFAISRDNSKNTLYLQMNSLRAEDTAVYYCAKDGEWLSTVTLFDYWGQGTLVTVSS VL: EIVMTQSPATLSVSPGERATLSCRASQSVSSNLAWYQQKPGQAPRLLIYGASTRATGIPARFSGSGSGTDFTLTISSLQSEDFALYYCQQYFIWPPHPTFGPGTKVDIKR ?
NO

Now the same for H1H27754P-N297Q (antibody, V domains shown, Human IgG1 Fc with N297Q point mutation) VH: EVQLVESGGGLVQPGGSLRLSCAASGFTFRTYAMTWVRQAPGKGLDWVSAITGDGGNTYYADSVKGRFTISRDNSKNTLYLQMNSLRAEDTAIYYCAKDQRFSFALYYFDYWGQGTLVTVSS VL: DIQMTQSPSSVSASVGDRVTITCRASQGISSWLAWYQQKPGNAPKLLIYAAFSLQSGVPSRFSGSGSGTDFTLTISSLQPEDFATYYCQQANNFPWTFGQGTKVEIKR
YES

Here is another binder to look at.
Does the reported t½ for H1H27747P-N297Q (antibody, V domains shown, Human IgG1 Fc with N297Q point mutation) VH: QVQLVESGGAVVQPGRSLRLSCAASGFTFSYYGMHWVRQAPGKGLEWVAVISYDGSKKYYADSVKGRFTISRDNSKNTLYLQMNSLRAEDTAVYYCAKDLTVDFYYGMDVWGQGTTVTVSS VL: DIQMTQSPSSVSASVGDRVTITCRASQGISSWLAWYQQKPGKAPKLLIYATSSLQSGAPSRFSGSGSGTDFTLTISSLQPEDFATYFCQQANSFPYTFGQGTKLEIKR fall at or above the 6 min mark?
NO
